Value source: patent US20230145305A1

Test system: OCI-LY10 cells
PROCEDURE TEXT: Cell proliferation assay (MTS) in OCI-LY10 cells
Type: cell-based
STUDY CONDITIONS: Homo sapiens; inhibition of OCI-LY10 cells proliferation, 72 h incubation, MTS, absorbance at 490 nm; read-out: OCI-LY10 IC50
Each record is given 1 if its reported IC50 is strictly below 4 nM. Records at or above 4 nM are given -1.

Example results:
COc1ccc(F)cc1C(=O)NCc1ccc(-n2c(=O)n(C3CCC3)c3c(=O)[nH]nc(N)c32)cc1 [Example 102]    -1
COc1ccc(F)cc1C(=O)NCc1ccc(-c2nn([C@H](C)C3CC3)c3c(=O)[nH]nc(N)c23)cc1 [Example 77a]    1
COc1ccc(F)cc1C(=O)NCc1ccc(-c2nn(C(C)(C)CF)c3c(=O)[nH]nc(N)c23)cc1 [Example 83]    -1
COc1ccc(F)cc1C(=O)NCc1ccc(-c2nn([C@@H]3CCCC3(F)F)c3c(=O)[nH]nc(N)c23)cc1 [Example 72]    1
COC(=O)N1CC[C@@H](n2cc(-c3ccc(CNC(=O)c4cc(F)ccc4OC)cc3)c3c(N)n[nH]c(=O)c32)C1 [Example 49]    -1

Below 4 nM on IC50? Entry COc1ccc(F)cc1C(=O)NCc1ccc(-c2cn(C3CCCC3)c3c(=O)[nH]nc(N)c23)cc1F [Example 30]
1

Please state whether IC50 is below 4 nM for COc1ccc(F)cc1C(=O)NCc1ccc(-n2nc(C3CCCC3)c3ccnc(N)c32)cc1 [Example 14]
-1

Decide: IC50 of CCC(C)n1nc(-c2ccc(CNC(=O)c3cc(F)ccc3OC)cc2)c2c(N)n[nH]c(=O)c21 (stereo not drawn) [Example 67] strictly below 4 nM?
1

Dear colleague, could you confirm whether IC50 of COc1ccc(F)cc1C(=O)NCc1ccc(-n2cc(C3CCCC3)c3c(=O)[nH]nc(N)c32)cc1 [Example 8] falls below 4 nM? Thanks.
1

Would you kindly verify if IC50 of COc1ccc(F)cc1C(=O)NCc1ccc(-c2cn([C@@H]3CCN(S(=O)(=O)C4CC4)C3)c3c(=O)[nH]nc(N)c23)cc1 [Example 112] is strictly less than 4 nM?
1

###

Test system: OCI-LY10 cells
PROCEDURE TEXT: Cell proliferation assay (MTS) in OCI-LY10 cells
Assay type: cell-based
STUDY CONDITIONS: Homo sapiens; inhibition of OCI-LY10 cells proliferation, 72 h incubation, MTS, absorbance at 490 nm; read-out: OCI-LY10 IC50
Friendly reminder: IC50 below 0.007 µM is rule met, at or above is rule not met.

The examples below pair each entry with its known result.
COc1ccc(F)cc1C(=O)NCc1ccc(-c2nn(C3(C(F)(F)F)CC3)c3c(=O)[nH]nc(N)c23)cc1 [Example 87]    rule met
COc1ccc(F)cc1C(=O)NCc1ccc(-c2cn([C@@H]3CCN(C(=O)OC4CC4)C3)c3c(=O)[nH]nc(N)c23)cc1 [Example 106]    rule not met

Here's the next entry for you.
Please indicate whether the reported IC50 of COc1ccc(F)cc1C(=O)NCc1ccc(-c2cn([C@@H]3C[C@@H]3F)c3c(=O)[nH]nc(N)c23)cc1 [Example 57] is strictly below 0.007 µM.
rule not met
